- Tested on: SW-620
- test-protocol: NCI tumour cell line growth inhibition, 48 h
The source made the active and inactive calls. No stated cut-off is given here; in the data, active = GI50 up to about 1.1 µM and inactive = higher.
measured-metric: GI50

[
  {
    "compound": "COc1ccc2c(c1)C=C([N+](=O)[O-])C(C1OC(C)(C)OC1C1COC(C)(C)O1)O2 (centres undefined)",
    "GI50": "2.26 µM (inactive)"
  }
]

Batch lookup, GI50 per entry.
1. CCOC(=O)C(=[N+]=[N-])C(=O)CSC#N
2. CC(=O)OCC1OC(N2C(C)=C(C(C)=O)C(c3ccc(Cl)cc3)C(C#N)=C2S)C(OC(C)=O)C(OC(C)=O)C1OC(C)=O (centres undefined)
3. C[O+]=C1C=CC(=C2SC(c3ccccc3)(c3ccccc3)c3ccccc32)C=C1.[O-][Cl+3]([O-])([O-])[O-]
4. NS(=O)(=O)c1cc(Br)c(/N=N\c2ccc(O)c3ncccc23)c(Br)c1

(A)
57.3 µM (inactive)
5.46 µM (inactive)
31.6 µM (inactive)
34.8 µM (inactive)
